# STUDY SYSTEM: rat brain MAO-B (Rattus norvegicus, UniProt P19643)
# Construct: from tissue; host or cells: rat brain homogenate
# Sequence (P19643 1-520): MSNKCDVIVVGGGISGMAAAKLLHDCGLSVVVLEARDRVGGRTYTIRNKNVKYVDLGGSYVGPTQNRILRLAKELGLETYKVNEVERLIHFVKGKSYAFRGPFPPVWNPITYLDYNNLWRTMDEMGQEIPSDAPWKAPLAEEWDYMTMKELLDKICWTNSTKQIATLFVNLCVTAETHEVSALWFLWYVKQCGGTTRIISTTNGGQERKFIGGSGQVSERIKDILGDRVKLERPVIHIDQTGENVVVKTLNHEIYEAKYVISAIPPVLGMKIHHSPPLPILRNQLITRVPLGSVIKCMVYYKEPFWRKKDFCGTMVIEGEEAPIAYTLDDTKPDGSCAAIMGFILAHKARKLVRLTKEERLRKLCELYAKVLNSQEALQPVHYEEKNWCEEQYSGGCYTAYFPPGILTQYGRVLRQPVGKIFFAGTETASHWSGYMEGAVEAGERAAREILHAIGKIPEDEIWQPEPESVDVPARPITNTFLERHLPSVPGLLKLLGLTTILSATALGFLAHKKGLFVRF
# METHOD SUMMARY: biochemical
# SETUP CONDITIONS: IC50 MAO-B, rat brain homogenate in vitro; mean SEM, n=3 in triplicates
Here the recorded IC50 is given for each entry.

| LINE NOTATION | IC50 / nM |
| --- | --- |
| C#CCN(C)Cc1ccc(OC(=O)N2CCCCC2)c2ncccc12 | 1860 |
| C#CCN(C)Cc1ccc(OC(=O)N2CCN(Cc3ccccc3)CC2)c2ncccc12 | 84 |

---

# STUDY SYSTEM: total cholinesterase (ChE) (Rattus norvegicus)
# METHOD SUMMARY: Total cholinesterase inhibition in rat brain homogenates (Ellman)
# Type: biochemical
pIC50: −log10 of the molar value.

| COMPOUND | STUDY SYSTEM | pIC50 |
| --- | --- | --- |
| C#CCN(C)Cc1ccc(O)c2ncccc12 [M30, reference compound] | total cholinesterase (ChE) (Rattus norvegicus) | 3.94 |

---

# System: human SH-SY5Y neuroblastoma cells
# METHOD SUMMARY: MTT cell viability assay in SH-SY5Y cells
# Assay type: cell-based
# SETUP CONDITIONS: 10 μM, MTT after 48 h incubation
REPORTED ENDPOINT: cell viability

| COMPOUND | REPORTED ENDPOINT | RESULT |
| --- | --- | --- |
| C#CCN(C)Cc1ccc(OC(=O)N2CCN(Cc3ccccc3)CC2)c2ncccc12 [Compound 13] | cell viability | similar |
| C#CCN(C)Cc1ccc(O)c2ncccc12 [M30, reference compound] | cell viability | similar |
| C#CCN1CCN(Cc2ccc(O)c3ncccc23)CC1 [HLA20, reference compound] | cell viability | ≤ 75% |

---

# STUDY SYSTEM: rat brain cholinesterase (total ChE) (Rattus norvegicus, UniProt P37136)
# Construct: rows headed: Ki (dissociation constant for EI); other: rat brain total ChE; mean of 3-4 experiments; k+2 (carbamylation rate constant); other: from ki; rate of carba
# Sequence (P37136 32-614): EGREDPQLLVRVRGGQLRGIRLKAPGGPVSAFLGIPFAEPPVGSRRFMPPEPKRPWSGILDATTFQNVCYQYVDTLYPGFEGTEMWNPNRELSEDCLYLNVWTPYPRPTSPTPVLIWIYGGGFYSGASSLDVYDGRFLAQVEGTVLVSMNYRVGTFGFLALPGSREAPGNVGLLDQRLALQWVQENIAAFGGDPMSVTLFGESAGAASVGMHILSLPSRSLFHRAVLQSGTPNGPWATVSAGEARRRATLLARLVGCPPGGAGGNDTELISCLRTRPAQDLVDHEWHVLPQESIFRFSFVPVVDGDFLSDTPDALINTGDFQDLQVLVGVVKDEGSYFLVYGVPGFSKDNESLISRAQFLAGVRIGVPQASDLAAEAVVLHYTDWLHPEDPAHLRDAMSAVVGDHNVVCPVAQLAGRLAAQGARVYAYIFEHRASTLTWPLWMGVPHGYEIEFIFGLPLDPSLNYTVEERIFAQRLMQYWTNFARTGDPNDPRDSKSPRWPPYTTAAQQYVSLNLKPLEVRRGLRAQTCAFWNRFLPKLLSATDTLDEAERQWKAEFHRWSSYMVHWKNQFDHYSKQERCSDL
# METHOD SUMMARY: Kinetics of irreversible cholinesterase inhibition (Kitz-Wilson)
# Type: biochemical
# SETUP CONDITIONS: pH 7.4, read-out: k+2 (carbamylation rate constant)
Here the recorded kinact is given for each entry.
REPORTED ENDPOINT: kinact

| LINE NOTATION | STUDY SYSTEM | RESULT |
| --- | --- | --- |
| C#CCN(C)Cc1ccc(OC(=O)N2CCN(Cc3ccccc3)CC2)c2ncccc12 | rat brain cholinesterase (total ChE) (Rattus norvegicus, UniProt P37136) | 0.00167 s⁻¹ |
| C#CCN(C)Cc1ccc(OC(=O)N2CCCCC2)c2ncccc12 | rat brain cholinesterase (total ChE) (Rattus norvegicus, UniProt P37136) | 0.00117 s⁻¹ |
| C#CCC1CCN(Cc2ccc(OC(=O)N(C)C)c3ncccc23)CC1 | rat brain cholinesterase (total ChE) (Rattus norvegicus, UniProt P37136) | 0.00233 s⁻¹ |
| C#CCN(C)Cc1ccc(OC(=O)N2CCCC2)c2ncccc12 | rat brain cholinesterase (total ChE) (Rattus norvegicus, UniProt P37136) | 0.00283 s⁻¹ |
| C#CCN(C)Cc1ccc(OC(=O)N(C)CC)c2ncccc12 | rat brain cholinesterase (total ChE) (Rattus norvegicus, UniProt P37136) | 0.0045 s⁻¹ |

---

# STUDY SYSTEM: rat brain cholinesterase (total ChE) (Rattus norvegicus, UniProt P37136)
# Construct: rows headed: Ki (dissociation constant for EI); other: rat brain total ChE; mean of 3-4 experiments; k+2 (carbamylation rate constant); other: from ki; rate of carba
# METHOD SUMMARY: Kinetics of irreversible cholinesterase inhibition (Kitz-Wilson)
# Format: biochemical
# SETUP CONDITIONS: pH 7.4, read-out: ki (second-order rate inhibition constant, approximated by k+2/Ki)
Output MET for kinact/KI not less than 80 M⁻¹ s⁻¹; output NOT MET otherwise.

| LINE NOTATION | ASSIGNED CLASS |
| --- | --- |
| C#CCN(C)Cc1ccc(OC(=O)N2CCCC2)c2ncccc12 | NOT MET |
| C#CCN(C)Cc1ccc(OC(=O)NCCCCCC)c2ncccc12 | NOT MET |
| C#CCN(C)Cc1ccc(OC(=O)N(C)CC)c2ncccc12 | NOT MET |
| C#CCC1CCN(Cc2ccc(OC(=O)N(C)C)c3ncccc23)CC1 | MET |
| C#CCN(C)Cc1ccc(OC(=O)N2CCCCC2)c2ncccc12 | NOT MET |
| C#CCN(C)Cc1ccc(OC(=O)N2CCN(Cc3ccccc3)CC2)c2ncccc12 | MET |

---

# STUDY SYSTEM: rat brain MAO-B (Rattus norvegicus, UniProt P19643)
# Construct: from tissue; host or cells: rat brain homogenate
# METHOD SUMMARY: biochemical
pIC50: −log10 of the molar value.

| MOLECULE | pIC50 |
| --- | --- |
| C#CCN(C)Cc1ccc(O)c2ncccc12 [M30, reference compound] | 7.24 |

---

Here the recorded inhibition at 10 µM is given for each entry.
# STUDY SYSTEM: rat brain MAO-B (Rattus norvegicus, UniProt P19643)
# Construct: from tissue; host or cells: rat brain homogenate
# Sequence (P19643 1-520): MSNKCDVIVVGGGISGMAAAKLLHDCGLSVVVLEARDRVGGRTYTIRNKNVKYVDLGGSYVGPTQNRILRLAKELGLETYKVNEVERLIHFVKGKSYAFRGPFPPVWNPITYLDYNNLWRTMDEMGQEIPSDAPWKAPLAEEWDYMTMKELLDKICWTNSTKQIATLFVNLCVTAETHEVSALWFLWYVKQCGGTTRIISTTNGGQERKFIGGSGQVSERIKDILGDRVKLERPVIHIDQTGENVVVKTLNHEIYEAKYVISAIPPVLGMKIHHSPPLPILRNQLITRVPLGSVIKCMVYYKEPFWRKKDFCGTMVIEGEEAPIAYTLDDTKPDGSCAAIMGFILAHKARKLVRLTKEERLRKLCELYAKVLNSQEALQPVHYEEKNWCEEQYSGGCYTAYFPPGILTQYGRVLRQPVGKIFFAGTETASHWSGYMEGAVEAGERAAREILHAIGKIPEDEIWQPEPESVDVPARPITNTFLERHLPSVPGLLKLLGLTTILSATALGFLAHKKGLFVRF
# METHOD SUMMARY: biochemical
# SETUP CONDITIONS: read-out: percent inhibition MAO-B
# Procedure: Rats were decapitated and the brains were quickly taken into a pre-weighted ice-cold sucrose buffer (10 mM Tris-HCl buffer, pH 7.4, containing 0.32 M sucrose), and their weights were measured. […] Protein concentration was determined with Bradford reagent at 595 nm, using bovine serum albumin as a standard. The activity of MAO-A and MAO-B were determined by the adapted method of Tipton & Youdim (Tipton et al. 1983). […]
REPORTED ENDPOINT: inhibition at 10 µM (%)

| MOLECULE | STUDY SYSTEM | REPORTED ENDPOINT | QUANTITATIVE READOUT |
| --- | --- | --- | --- |
| C#CCN(C)Cc1ccc(OC(=O)N(C)CC)c2ncccc12 [Compound 3] | rat brain MAO-B (Rattus norvegicus, UniProt P19643) | inhibition at 10 µM | 9 |
| C#CCC1CCN(Cc2ccc(OC(=O)N(C)C)c3ncccc23)CC1 [Compound 23] | rat brain MAO-B (Rattus norvegicus, UniProt P19643) | inhibition at 10 µM | 3 |
| C#CCN(C)Cc1ccc(OC(=O)NCCCCCC)c2ncccc12 [Compound 4] | rat brain MAO-B (Rattus norvegicus, UniProt P19643) | inhibition at 10 µM | 25 |
| C#CCN(C)Cc1ccc(OC(=O)N(C)C)c2ncccc12 [Compound 2] | rat brain MAO-B (Rattus norvegicus, UniProt P19643) | inhibition at 10 µM | 67 |
